Hi there, I'd appreciate the recorded % Signal Inhibition Rep2 for every entry that follows.
Biological target: T1, canine OX40L, full length membrane form, expressed on HEK293 cells (canine)
T1 chain: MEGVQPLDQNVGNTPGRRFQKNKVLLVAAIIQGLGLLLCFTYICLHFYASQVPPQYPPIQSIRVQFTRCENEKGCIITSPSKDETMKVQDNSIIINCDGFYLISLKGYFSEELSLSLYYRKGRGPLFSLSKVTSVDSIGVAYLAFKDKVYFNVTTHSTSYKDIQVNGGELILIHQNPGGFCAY
Test: cell-based or functional assay
Answers are plain numbers, in %.

Param item = PMX094 (antibody, V domains shown) VH: DIHLVESGGDLVRPGGSLRLSCVASGFTFSNLHMNWVRQAPGKGLQWVAFINSGGSGTTYADVVRGRFTISRDYAKNTLYLQMNSLRADDTAVYYCASGSIWTHFDYWGQGTLVTVSS VL: SFVLTQLPSVSVTLRQTARITCGGDSIGSKSVYWYQQKLGQAPVLIIYRDSNRPTGIPERISGASSGNTATLTISGALAEDEADYYCQVWDSSNKAMFGGGTHLTVL ; retrieve measured % Signal Inhibition Rep2.
55

Give me % Signal Inhibition Rep2 for each of these binders, listed below.
1. PMX033 (antibody, V domains shown, also called PMX33) VH: EVQLVESGGDLVKPGGSLRLSCVASGFTFSSYHMSWVRQAPGKGLQWVAYITSGGRTTSYADAVKGRFTISRDNAKNTLYLQMKSLRAEDTAVYYCASDLVLVLGGAEYWGQGTLVTVSS VL: SYELTQPPSVNVTLRETAHITCGGDSIGRKYVQWIQQNPGQAPVVIIYKDSNRPTGIPERFSGANSGNTATLTISGALAEDEADYYCQVGDSGSKAVFGGGTHLTVL
2. PMX097 (antibody, V domains shown, also called PMX97) VH: EVQLVESGGDLVRPGGSLRLSCVASGITFSSYHMSWVRQAPGKGLQWVALINSGGSSITYADVVRGRFTISRDYAKNTLYLQMNSLRAEDTAVYYCASGSIWTHFDYWGQGTRVTVSS VL: SFVLTQLPSVSVTLRQTARITCGGDIIGSKNVYWYQQRLGQAPVLIIYRDSNRPTGIPERFSGASSGNTATLTISGALAEDEADYYCQVWDNSNKAMFGGGTHLTVL

[69.8, 73.1]
